compounds and their reported Activity
System: Plasmodium falciparum
Assay procedure: Antimalarial activity against ring stage Plasmodium falciparum 3D7 at 1.82 uM after 72 hrs by DAPI-staining based confocal microscopy
Format: functional
Lab book: enter the figure in %, no units written.

# annotated cases, reported Activity shown
COc1ccc(-c2cnc(N)c(-c3ccc(O)c(OC)c3)c2)cc1 | 50
Nc1ncc(-c2ccc(Cl)cc2)cc1-c1cccc(CO)c1 | 50

The measured Activity associated with CN(C)CCNC(=O)c1ccc(-c2cc(-c3cc(F)c(F)c(F)c3)cnc2N)cc1 reads 50

* * *

Assay procedure: Volume of distribution at steady state in Sprague-Dawley rat at 3.2 mg/kg, iv
Type: ADME, organism-based
Set-up: dose 3.2 mg/kg, route intravenous
Measurement context: plasma, read-out: Vdss
Property measured: Vd (L/kg)
Lab book: enter the figure in L/kg, no units written.

The measured Vd associated with CS(=O)(=O)c1ccc(-c2cnc(N)c(-c3ccc(C(F)(F)F)nc3)c2)cc1 [MMV-048] reads 2.7
